Data credit: the supplement of paper PMC4466140

Could you please report measured SPOT peptide array binding signal intensity for the items listed next?
systemName: ScLsb1
protocolNotes: SPOT peptide array binding signal intensity (averaged, normalized) (arbitrary units (background-subtracted, floor 0; scale differs between SH3 domains)); higher = stronger binding of the SH3 domain to the peptide
The answer should be a number; do not append a unit.

Which measured SPOT peptide array binding signal intensity value corresponds to FTLPPPPPPPGLDEL ? 0.25

What do you get for RPVPPPPPMRTTTEG ? 180

What do you have for SSSSTPPTLPPRRIE ? 2090

Let us now turn to TEVPIPRRPPPPQAA 5

Entry to check: PAPPPPPRASRPTPN 49.2

Next: SSSSSPPPLPTRRDH 1340
